Quick reference for protein stability index among some variants
B1: IKZF1 (parent)
chain: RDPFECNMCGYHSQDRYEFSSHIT

# Variants of: B1
# TEST SUMMARY: protein stability index of a GFP-peptide fusion (GPS, HEK-293T) (PSI 1-6); higher = more stable;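 further: lentivirally expressed fusions sorted by FACS into six bins by GFP to DsRed ratio, PSI derived from sequencing read proportions per bin multiplied by bin number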
# MEASUREMENT PARAMETERS: c terminus: a fixed tail appended
Form rule: numeric answer, no unit written next to it.

F19Y :: 2.47
Y11M :: 2.59
T24I :: 2.28
Y17G :: 2.19

Problem: Using known records, supply protein stability index for M8C
Solution: 2.19

Problem: Using known records, supply protein stability index for F19T
Solution: 2.94

Problem: Using known records, supply protein stability index for D2E
Solution: 2.18

Problem: Using known records, supply protein stability index for Y11Q
Solution: 2.61

Problem: Using known records, supply protein stability index for M8W
Solution: 2.34
